Property: pKd; scope: individual binders
Biological target: T1, human PRLR (Biacore antigen) (human, UniProt P16471 25-234, limits assumed)
T1 construct: The construct injected over captured antibody is not described (a soluble form is likely); also called huPRLR
T1 sequence: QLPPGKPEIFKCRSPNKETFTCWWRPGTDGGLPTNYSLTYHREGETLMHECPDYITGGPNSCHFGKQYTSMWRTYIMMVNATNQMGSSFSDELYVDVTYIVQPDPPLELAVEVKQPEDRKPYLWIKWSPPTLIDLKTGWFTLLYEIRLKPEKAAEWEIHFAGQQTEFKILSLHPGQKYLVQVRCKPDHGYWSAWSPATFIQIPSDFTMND
Assay: SPR Biacore
pKd: −log10 of the molar value.

Binder	pKd
Ab15 (antibody, human IgG1, kappa, V domains shown, humanized from Ab6; G1; also called Ab1 HC.1 and Ab1 LC.1a) VH: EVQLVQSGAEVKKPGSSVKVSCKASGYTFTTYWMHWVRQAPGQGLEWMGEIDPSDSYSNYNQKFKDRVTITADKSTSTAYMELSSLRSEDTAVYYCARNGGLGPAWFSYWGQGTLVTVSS VL: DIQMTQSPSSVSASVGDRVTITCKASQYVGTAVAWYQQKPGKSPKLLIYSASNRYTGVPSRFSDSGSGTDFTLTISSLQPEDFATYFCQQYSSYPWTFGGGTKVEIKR	9.08
Ab14 (antibody, human IgG1, kappa, V domains shown, humanized from Ab6; G1; also called Ab1 HC.1 & Ab1 LC.1) VH: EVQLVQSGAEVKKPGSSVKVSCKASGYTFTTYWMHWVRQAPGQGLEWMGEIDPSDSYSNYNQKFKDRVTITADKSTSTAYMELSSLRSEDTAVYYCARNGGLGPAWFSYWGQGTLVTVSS VL: DIQMTQSPSSVSASVGDRVTITCKASQYVGTAVAWYQQKPGKAPKLLIYSASNRYTGVPSRFSGSGSGTDFTLTISSLQPEDFATYYCQQYSSYPWTFGGGTKVEIKR	8.38
Ab48 (antibody, human IgG1, kappa, V domains shown, humanized from Ab8; G1; also called Ab3 HC.1a and Ab3 LC.1a) VH: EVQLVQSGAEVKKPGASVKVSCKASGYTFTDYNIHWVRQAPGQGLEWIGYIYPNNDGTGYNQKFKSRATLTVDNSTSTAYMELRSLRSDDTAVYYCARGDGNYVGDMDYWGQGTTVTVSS VL: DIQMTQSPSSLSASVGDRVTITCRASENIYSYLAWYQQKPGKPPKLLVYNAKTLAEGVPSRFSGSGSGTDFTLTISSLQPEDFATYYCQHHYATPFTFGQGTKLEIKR	9.74
